Test system: TO-3-N3 (biotin conjugate)
assay-method-text: pull-down binding Z-score (relative to library population); higher = stronger binding
condition-set: RNA library: Library-2
Known pull-down binding Z-score of a selection of sequences
Write no unit; give the number alone.

# seq-text, readout-value
rows = [
    ("GGUUGGGAAAUUGUUAAAUUUAUCUCAACC", -0.472),
    ("UCCUUACAUGGA", -0.557),
    ("AUCUAUUCCAGAAGAU [hsa-mir-4696]", -0.911),
    ("UUUGCUGUUGAACGUAGUGGUAA [hsa-mir-548ar]", 0.181),
    ("AUUGCUGGACGCUGCCCUGGGCAU [hsa-mir-25]", 0.362),
]

Request: GET /values?readout=pull-down binding Z-score&system=TO-3-N3 (biotin conjugate)&item= AAUCAAAAAGAGUUGAUU [DMSMaPseq_invitro_SARS-CoV-2_Motif_439]
Result: -0.396

====

System: TO-N3 (biotin conjugate)
assay-method-text: pull-down binding Z-score (relative to library population); higher = stronger binding
condition-set: RNA library: Library-2
Known pull-down binding Z-score of a selection of sequences
Write no unit; give the number alone.

# seq-text, endpoint-label, readout-value
records = [
    ("UUGCUCUUUGGUGGAGAUA [hsa-mir-6074]", "pull-down binding Z-score", 0.505),
    ("CCCACGGCCCUUGUCAGUGUG [hsa-mir-3190]", "pull-down binding Z-score", 0.809),
]

Request: GET /values?readout=pull-down binding Z-score&system=TO-N3 (biotin conjugate)&item= GAUGGAUUCUUAUGCUCCAUC [hsa-mir-136]
Result: -0.631

Request: GET /values?readout=pull-down binding Z-score&system=TO-N3 (biotin conjugate)&item= GGGGCUGAGAAACCAAAGUUUC [IAV_invivo_PA_3_Motif_3+IAV_invivo_PA_3_Motif_3]
Result: 0.788

Request: GET /values?readout=pull-down binding Z-score&system=TO-N3 (biotin conjugate)&item= "ACAGGGACUACUCCCACCCAAGAAUAGCAUAGAUGCCUUCAAACUCAACAUUAAAUUGUUGGGUGUUGGUGGCAAACCUUGUAUCAAAGUAGCCACUGU"
Result: -0.503

Request: GET /values?readout=pull-down binding Z-score&system=TO-N3 (biotin conjugate)&item= AAAUCCGUGUUUGGACGCUUCUGGUA [hsa-mir-3936]
Result: 0.923

Request: GET /values?readout=pull-down binding Z-score&system=TO-N3 (biotin conjugate)&item= UGUUGUAAAUAAGGGACACUUUGAUGGACAACA [DMSMaPseq_invitro_SARS-CoV-2_Motif_348]
Result: -0.488

Request: GET /values?readout=pull-down binding Z-score&system=TO-N3 (biotin conjugate)&item= "UCACACUAAAAAGUGGA"
Result: -1.1

Request: GET /values?readout=pull-down binding Z-score&system=TO-N3 (biotin conjugate)&item= AUGCAUUCUGCAU [SHAPE_invivo_SARS-CoV-2_Motif_273]
Result: -0.142

====

System: TO-N3 (biotin conjugate)
assay-method-text: pull-down binding Z-score (relative to library population); higher = stronger binding
condition-set: RNA library: Library-2
Known pull-down binding Z-score of a selection of sequences
Write no unit; give the number alone.

Some solved entries appear below for comparison.
# seq-text, pull-down binding Z-score
rows = [
    ("GAAAAGAACAAUCAAGGGUACACACCACUGGUUGUUACUCACAAUUUUGACUUCACUUUUAGUUUUAGUCCAGAGUACUCAAUGGUCUUUGUUCUUUUU", -0.121),
    ("UCAGUUGUAAACAUUCAAAAAGAAAUUGA", 0.0554),
    ("GUGGAGGUAGGCGAGAGUAAUAUAAUUUCUCCAGGAGAACAUCUGAGAGGGGAAGUUGCUUUCCUGCCCUGGCCCUUUCAC [hsa-mir-6076]", 0.735),
    ("AAGUUUGUUCGCAUUCAACCAGGACAGACUU [DMSMaPseq_invitro_SARS-CoV-2_Motif_187]", 1.09),
    ("AUCCCUUAGAUGCUAAGAUGGGGAU [hsa-mir-145]", -0.513),
]

Request: Dear colleague, I am looking for the recorded pull-down binding Z-score of the following sequence: UGGUUUGACACAGAGCUAAAUCA [hsa-mir-5007]
Result: 0.596

Request: Dear colleague, I am looking for the recorded pull-down binding Z-score of the following sequence: GGGGCCCUACUUUAAGGGCCCU [hsa-mir-8087]
Result: 0.868

Request: Dear colleague, I am looking for the recorded pull-down binding Z-score of the following sequence: CUGCUGCUGCUGCUGCUGCUGCUGCUGCUGCUGCUGCUGCUGCUGCUG [r(CUG)16]
Result: 0.778

Request: Dear colleague, I am looking for the recorded pull-down binding Z-score of the following sequence: GCGCUGCCAGAAACUGGCGAGCGC [bulge-G]
Result: -0.593

Request: Dear colleague, I am looking for the recorded pull-down binding Z-score of the following sequence: "UCUGUUUGGAACUUUAAUUUUAGCCAUGGCAGA"
Result: -0.72

Request: Dear colleague, I am looking for the recorded pull-down binding Z-score of the following sequence: CGGGGGGGGCCCGGGGACGGCUUGGGCCUGCCUAGUCGG [hsa-mir-1234]
Result: 2.73

====

Tested on: TO-3-N3 (biotin conjugate)
assay-method-text: pull-down binding Z-score (relative to library population); higher = stronger binding
condition-set: RNA library: Library-2
Known pull-down binding Z-score of a selection of sequences
Write no unit; give the number alone.

Request: Dear colleague, I am looking for the recorded pull-down binding Z-score of the following sequence: CACAAUAUUUAGGACAACAAUAUU [hsa-mir-1302-6]
Result: -0.282

Request: Dear colleague, I am looking for the recorded pull-down binding Z-score of the following sequence: GGGUUGGGUUGGGUUGGGUUGGGUUGGGUU [G4_r(GGGUU)6]
Result: 7.99

Request: Dear colleague, I am looking for the recorded pull-down binding Z-score of the following sequence: ACAGUGGCCACAUCUCCAC [hsa-mir-1184-3_1184-2_1184-1]
Result: 1.11

Request: Dear colleague, I am looking for the recorded pull-down binding Z-score of the following sequence: "UAGGUGUUUUAAUGUCUAAUUUAGGCAUGCCUUCUUACUGUACUGGUUACAGAGAAGGCUAUUUGAACUCUA"
Result: -0.861

Request: Dear colleague, I am looking for the recorded pull-down binding Z-score of the following sequence: CAGAGGCAUCGGGUCAG [hsa-mir-4746]
Result: 0.807

====

Test system: TO-3-N3-2 (biotin conjugate)
assay-method-text: pull-down binding Z-score (relative to library population); higher = stronger binding
condition-set: RNA library: Library-2
endpoint-label: pull-down binding Z-score
Write no unit; give the number alone.

Some solved entries appear below for comparison.
# seq-text, pull-down binding Z-score
measured = [
    ("CUUCACUGGUGCAGUAAGAAG [hsa-mir-7853]", -0.195),
    ("UUACAGAAGAGGUUGGCCACACAGAUCUAAUGGCUGCUUAUGUAG", -0.244),
    ("CAGGCCAUCACAAAUGCCACAGCUUGAGUAAACUGUGCAGCCUG [3-way model-2_DENV2]", -0.224),
    ("UUUGCAUCUGGACGACGAAU [hsa-mir-409]", -0.0371),
    ("CUUUCUGUUGUCUGAAAGAAAAGAAAA [hsa-mir-522]", 0.118),
]

Request: Dear colleague, I am looking for the recorded pull-down binding Z-score of the following sequence: "UGCCUUCAAACUCAACAUUAAAUUGUUGGGUGUUGGUGGCA"
Result: -0.352

Request: Dear colleague, I am looking for the recorded pull-down binding Z-score of the following sequence: UUAACAUGUUGAGCAUUACUCAUGUUAG [hsa-mir-3684]
Result: -0.175

Request: Dear colleague, I am looking for the recorded pull-down binding Z-score of the following sequence: "AUAAUAAGAGGCUGGAUUUUUGGUACUACUUUAGAUUCGAAGACCCAGUCCCUACUUAUUGU"
Result: -0.168

Request: Dear colleague, I am looking for the recorded pull-down binding Z-score of the following sequence: CUGUGAGGACAUCCAGGGUCACAG [hsa-mir-125a]
Result: 0.169

Request: Dear colleague, I am looking for the recorded pull-down binding Z-score of the following sequence: "ACAUGCCAAUUUAGAUUCUUGCAAAAGAGUCUUGAACGUGGUGUGU"
Result: -0.712

====

Tested on: TO-N3-2 (biotin conjugate)
assay-method-text: pull-down binding Z-score (relative to library population); higher = stronger binding
condition-set: RNA library: Library-2
endpoint-label: pull-down binding Z-score
Write no unit; give the number alone.

# seq-text, measurement-target, readout-value
records = [
    ("AUCUACAAUGAU [DMSMaPseq_invitro_SARS-CoV-2_Motif_243]", "TO-N3-2 (biotin conjugate)", -1.55),
]

Request: Dear colleague, I am looking for the recorded pull-down binding Z-score of the following sequence: GCAGCCUUCUGCCUUUGGCUUUCUGAAGCGAGCUGA [hsa-mir-7158]
Result: 1.09

Request: Dear colleague, I am looking for the recorded pull-down binding Z-score of the following sequence: "UACCAUUUAAUGAUGGUG"
Result: -1.03

Request: Dear colleague, I am looking for the recorded pull-down binding Z-score of the following sequence: GGGUACGACUUUGAAAGGGAGGGAUACUCUCUAGUCGGAAUAGACCC [IAV_invivo_NP_5_Motif_16+IAV_invivo_NP_5_Motif_16]
Result: 0.638
